Consider the following variants and their measured Kd readings.
B1: yeast-displayed wild-type human IL-11 [human] / soluble human IL-11 receptor extracellular domain, his-tagged [human] (parent complex)
chain 1: PGPPPGPPRVSPDPRAELDSTVLLTRSLLADTRQLAAQLRDKFPADGDHNLDSLPTLAMSAGALGALQLPGVLTRLRADLLSYLRHVQWLRRAGGSSLKTLEPELGTLQARLDRLLRRLQLLMSRLALPQPPPDPPAPPLAPPSSAWGGIRAAHAILGGLHLTLDWAVRGLLLLKTRL
chain 2: SPCPQAWGPPGVQYGQPGRSVKLCCPGVTAGDPVSWFRDGEPKLLQGPDSGLGHELVLAQADSTDEGTYICQTLDGALGGTVTLQLGYPPARPVVSCQAADYENFSCTWSPSQISGLPTRYLTSYRKKTVLGADSQRRSPSTGPWPCPQDPLGAARCVVHGAEFWSQYRINVTEVNPLGASTRLLDVSLQSILRPDPPQGLRVESVPGYPRRLRASWTYPASWPCQPHFLLKFRLQYRPAQHPAWSTVEPAGLEEVITDAVAGLPHAVRVSARDFLDAGTWSTWSPEAWGTPSTGTIPKEIPAWGQLHTQPEVEPQVDSPAPPRPSLQPHPRLLDHRDSVEQVAVLA

variants of: B1; assay: yeast display titration (flow cytometry); parent: 8.2 nM
OBSERVED PROPERTY: Kd (nM)

INSERT INTO assay_data (mutation, unit_descriptor, assay_result) VALUES
  ('chain 1 T21I, chain 1 L57P, chain 1 G62R', 'nM', 0.22),
  ('chain 1 L57P, chain 1 G62R', 'nM', 0.42),
  ('chain 1 D19G, chain 1 T21I, chain 1 L57P, chain 1 G62R, chain 1 G71D', 'nM', 0.19);

Attribution: paper PMC10658506
